Exercise: state measured log10(IC50) for each of the substances provided.
Test system: human colon cancer RKO cell line
Protocol notes: Cell proliferation assay (WST-1) in RKO cells
Type: cell-based
Details: 6 hr exposure then 96 hr growth, mean ± S.D., at least 3 experiments
Strand notation (5' to 3'): a small letter for the sugar, then the base; units joined by * are phosphorothioate-linked, units joined directly phosphodiester-linked; [ ] holds rarer units or linkages, { } end groups; capitals alone tell only the bases. [5FU] = 5-fluoro-2'-deoxyuridine (FdU); d = 2'-deoxy (DNA); r = 2'-OH (RNA)
Kindly note that the scale is log10 and the underlying IC50 is in nM.

Given the substance TS6-FdU/dA: TS-targeted ssiRNA, all 3′-end overhang dU of sense strand replaced with FdU (5 FdU); SEQ ID NO: 9 and 10 (chain 1 GGAUAUUGUCAGUCUUUAGGUUUUU; chain 2 CCUAAAGACUGACAAUAUCCAAAAA; chain 1: sugars from the 5' end r20 d5, [5FU] at 21, 22, 23, 24, 25, backbone not given here; chain 2: sugars from the 5' end r20 d5, backbone not given here) and test system human colon cancer RKO cell line, the measured log10(IC50) is -0.09

Given the substance TS6-1xF-dU/dA: ssiRNA with a single FdU residue at the 4th position in the sense strand; SEQ ID NO: 5 and 6 (chain 1 GGAUAUUGUCAGUCUUUAGGUUUUU; chain 2 CCUAAAGACUGACAAUAUCCAAAAA; FdU at position 4 of sense strand, chemistry not fully specified) and test system human colon cancer RKO cell line, the measured log10(IC50) is 0.45

Given the substance TS6-FdU/FdU: TS-targeted ssiRNA, both 3′-ends modified with FdU; SEQ ID NO: 13 and 14 (chain 1 rGrGrArUrArUrUrGrUrCrArGrUrCrUrUrUrArGrGd[5FU]d[5FU]d[5FU]d[5FU]d[5FU]; chain 2 rCrCrUrArArArGrArCrUrGrArCrArArUrArUrCrCd[5FU]d[5FU]d[5FU]d[5FU]d[5FU]) and test system human colon cancer RKO cell line, the measured log10(IC50) is -0.11

Given the substance TS6-dU/dA: unmodified TS-targeted ssiRNA, 5 dU on 3′-end of sense strand, 5 dA on 3′-end of antisense strand; SEQ ID NO: 3 and 4 (sense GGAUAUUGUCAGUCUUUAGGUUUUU; antisense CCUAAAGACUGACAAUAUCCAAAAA; sense: sugars from the 5' end r20 d5, backbone and T or U not given here; antisense: sugars from the 5' end r20 d5, backbone not given here) and test system human colon cancer RKO cell line, the measured log10(IC50) is 1.91

Given the substance TS6-dA/FdU: TS-targeted ssiRNA with FdU modification of the 3′-end of antisense strand; SEQ ID NO: 11 and 12 (chain 1 GGAUAUUGUCAGUCUUUAGGAAAAA; chain 2 CCUAAAGACUGACAAUAUCCUUUUU; chain 1: sugars from the 5' end r20 d5, backbone not given here; chain 2: sugars from the 5' end r20 d5, [5FU] at 21, 22, 23, 24, 25, backbone not given here) and test system human colon cancer RKO cell line, the measured log10(IC50) is 0.10

Given the substance Mis-FdU/dA: control, non-targeted ssiRNA containing 5 FdU residues on the sense strand; SEQ ID NO: 21 and 22 (chain 1 GGAUACUGCCAAUCUCUAGGUUUUU; chain 2 CCUAGAGAUUGGCAGUAUCCAAAAA; chain 1: sugars from the 5' end r20 d5, [5FU] at 21, 22, 23, 24, 25, backbone not given here; chain 2: sugars from the 5' end r20 d5, backbone not given here) and test system human colon cancer RKO cell line, the measured log10(IC50) is 0.46
